# targetSystem: UniProt P25929
# assayComment: NPY1R binding assay (SK-N-MC membrane, [125I]-Peptide YY competition)
# recordedConditions: crude SK-N-MC membranes endogenously expressing NPY1R; [125I]-Peptide YY (human) 0.05 nM; 120 min at room temperature; read-out: hNPY1R binding Ki
endpointLabel: Ki

For orientation, consider the following solved cases.
>  <molecule>
CCC(=O)NCCNC(=O)/N=C(/N)NCCC[C@@H](NC(=O)[C@H](c1ccc(OCCCNC(=O)C[C@H](O)C[C@H](O)CCNC(=O)CN2CCN(CC(=O)O)CCN(CC(=O)O)CCN(CC(=O)O)CC2)cc1)N1Cc2ccccc2C1)C(=O)NCc1c(F)cc(O)cc1F

>  <Ki>
< 10 nM

$$$$
>  <molecule>
N=C(N)NCCC[C@@H](NC(=O)C(c1ccccc1)N1CCC2(CCCC2)CC1)C(=O)NCc1ccc(O)cc1 (stereo partly drawn)

>  <Ki>
100 to 1000 nM

$$$$

We now examine a further molecule.
Ask: Any idea what its Ki is? The molecule is `CCC(=O)NCCNC(=O)/N=C(/N)NCCC[C@@H](NC(=O)[C@H](c1cccc(N(C)CCCNC(=O)CCCCCNC(=O)CN2CCN(CC(=O)O)CCN(CC(=O)O)CCN(CC(=O)O)CC2)c1)N1Cc2ccccc2C1)C(=O)NCc1ccc(O)cc1`
Result: < 10 nM

###

// values below are reported pKi
# targetSystem: hNPY1R (Homo sapiens (Human), UniProt P25929)
# Sequence (P25929 whole entry): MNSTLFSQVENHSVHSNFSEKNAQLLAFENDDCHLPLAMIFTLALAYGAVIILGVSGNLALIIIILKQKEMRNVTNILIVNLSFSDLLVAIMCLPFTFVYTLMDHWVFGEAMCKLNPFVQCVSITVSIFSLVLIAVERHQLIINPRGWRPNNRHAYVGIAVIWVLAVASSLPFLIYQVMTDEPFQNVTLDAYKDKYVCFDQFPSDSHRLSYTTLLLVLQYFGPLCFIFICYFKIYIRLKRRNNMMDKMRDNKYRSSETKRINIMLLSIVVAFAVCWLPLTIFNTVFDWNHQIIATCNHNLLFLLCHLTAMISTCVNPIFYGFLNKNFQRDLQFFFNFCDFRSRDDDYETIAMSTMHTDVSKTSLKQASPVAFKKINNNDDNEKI
# assayComment: NPY1R binding assay (SK-N-MC membrane, [125I]-Peptide YY competition);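 note: bound radioligand separated by filtration over GF/C filter plates and counted, Ki obtained by non-linear regression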
# recordedConditions: crude SK-N-MC membranes endogenously expressing NPY1R; [125I]-Peptide YY (human) 0.05 nM; 120 min at room temperature; read-out: hNPY1R binding Ki
pKi: −log10 of the molar value.

For orientation, consider the following solved cases.
>  <molecule>
CCC(=O)NCCNC(=O)/N=C(/N)NCCC[C@@H](NC(=O)[C@H](c1cccc(NCCCNC(=O)CCCCCNC(=O)CN2CCC(NC(=O)CN3CCN(CC(=O)O)CCN(CC(=O)O)CCN(CC(=O)O)CC3)CC2)c1)N1Cc2ccccc2C1)C(=O)NCc1ccc(O)cc1 [compound 28]

>  <pKi>
> 8.00

$$$$
>  <molecule>
N=C(N)NCCC[C@@H](NC(=O)C(c1ccccc1)N1CCCCC1)C(=O)NCc1ccc(O)cc1 (stereo partly drawn) [compound 72]

>  <pKi>
6.00 to 7.00

$$$$

We now examine a further molecule.
Ask: Provide the documented pKi with hNPY1R (Homo sapiens (Human), UniProt P25929) as the system for N=C(N)NCCC[C@@H](NC(=O)C(c1ccccc1)N1CCC2(CCC2)CC1)C(=O)NCc1ccc(O)cc1 (stereo partly drawn) [compound 89]
Result: 7.00 to 8.00
